Assay: Intrinsic clearance mouse in liver microsomes at 10 uM preincubated for 5 mins followed by NADPH addition and measured up to 45 mins by LC/MS analysis
Assay type: ADME, subcellular, Microsome
Settings: time <=50 min, read-out: CLH
measurement.kind: CLint scaled at 10 µM (mL/min/kg)

1. COc1cc2nc(N/N=C3\CCCc4cccnc43)sc2cc1OC
2. c1cnc2c(c1)CCC/C2=N\Nc1nc2ccccc2s1
QUERY: Identify the entry with the larger CLint scaled at 10 µM. Options: 1 and 2 Please reply using the label of the selected record.
RESULT: 2

P. NC(=S)N/N=C/c1ncccc1N
Q. Cc1ccc2nc(N/N=C3\CCCc4cccnc43)sc2c1
QUERY: I'm curious, which of these has a smaller CLint scaled at 10 µM number: P or Q ? Answer with the label corresponding to your selection.
RESULT: P
(P: 518 mL/min/kg, Q: 2520 mL/min/kg)
